- testedSystem: Glutamate receptor ionotropic, AMPA (Rattus norvegicus, UniProt P19490+P19491+P19492+P19493)
measurementLabel: IC50 (µM)
Give the quantity in µM, number only.

Here's what some known entries look like.
[
  {
    "molecule": "NC(=O)C[C@@H](NC(=O)Cc1cccc2ccccc12)C(=O)N1CCC(CNCCCCNCC2CCNCC2)CC1",
    "IC50 / µM": 0.27
  },
  {
    "molecule": "O=C(Cc1cccc2ccccc12)N1CCC(CNCCCCNCC2CCNCC2)CC1",
    "IC50 / µM": 1.3
  },
  {
    "molecule": "O=C(Cc1cccc2ccccc12)N1CCC(CNCCCCNCC2CCCCN2)CC1 (stereo not given)",
    "IC50 / µM": 1.1
  },
  {
    "molecule": "O=C(Cc1cccc2ccccc12)N1CCC(CNCCCCNCCN2CCCCC2)CC1",
    "IC50 / µM": 0.19
  }
]

// below: IC50 requested for another molecule
(Q) Find the recorded IC50 belonging to O=C(Cc1cccc2ccccc12)NCCCCCC(=O)N1CCC(CNCCCCNCC2CCNCC2)CC1 and report it.
(A) 0.42
